Molecular target: human ACE2 (human, UniProt Q9BYF1 18-740)
Sequence (Q9BYF1 18-740 limits assumed): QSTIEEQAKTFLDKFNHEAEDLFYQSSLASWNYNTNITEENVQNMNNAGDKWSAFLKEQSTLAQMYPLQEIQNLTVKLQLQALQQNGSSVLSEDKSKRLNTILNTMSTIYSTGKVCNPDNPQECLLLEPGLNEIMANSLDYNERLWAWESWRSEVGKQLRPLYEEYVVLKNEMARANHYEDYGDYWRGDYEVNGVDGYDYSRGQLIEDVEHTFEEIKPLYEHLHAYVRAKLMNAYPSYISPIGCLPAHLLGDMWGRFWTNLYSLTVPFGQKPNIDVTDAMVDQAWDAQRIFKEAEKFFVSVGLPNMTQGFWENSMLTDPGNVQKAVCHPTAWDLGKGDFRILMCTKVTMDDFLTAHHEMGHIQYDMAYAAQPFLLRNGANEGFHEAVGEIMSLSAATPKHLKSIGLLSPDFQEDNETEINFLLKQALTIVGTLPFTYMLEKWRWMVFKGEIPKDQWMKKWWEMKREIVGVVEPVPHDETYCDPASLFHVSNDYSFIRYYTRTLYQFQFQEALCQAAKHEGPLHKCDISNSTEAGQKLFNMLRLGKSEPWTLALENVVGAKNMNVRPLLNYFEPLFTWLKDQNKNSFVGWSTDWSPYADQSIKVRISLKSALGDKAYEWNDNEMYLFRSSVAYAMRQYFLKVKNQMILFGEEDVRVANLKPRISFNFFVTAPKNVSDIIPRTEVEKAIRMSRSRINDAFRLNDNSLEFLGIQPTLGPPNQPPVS
MEASURED_PROPERTY: Kd (nM)
Please state the figure in nM; there is no need to write the unit.

1) 4-140 (VHH) VHH: EVQLVESGGGLVQPGGSLRLSCAASGRTFSNAAMGWFRQAPGKEREFVARITWNGGSTFYADSVKGRFTISADNSKNTAYLQMNSLKPEDTAVYYCATTENPNPRWGQGTLVTVSS; 8.9
2) 4-101 (VHH) VHH: EVQLVESGGGLVQPGGSLRLSCAASGRTFSNAAMGWFRQAPGKEREFVARILWTGASRSYADSVKGRFTISADNSKNTAYLQMNSLKPEDTAVYYCATTENPNPRWGQGTLVTVSS; 5.8
3) 4-54 (VHH) VHH: EVQLVESGGGLVQPGGSLRLSCAASGRTFSDARMGWFRQAPGKEREFVGAVSWSGGTTVYADSVKGRFTISADNSKNTAYLQMNSLKPEDTAVYYCATTEDPYPRWGQGTLVTVSS; 645

Here's the next entry for you.
Ask: For 4-39 (VHH) VHH: EVQLVESGGGLVQPGGSLRLSCAASGRTFSNAAMGWFRQAPGKEREFVARILWTGASRNYADSVKGRFTISADNSKNTAYLQMNSLKPEDTAVYYCATTENPNPRWGQGTLVTVSS , write its Kd.
Result: 17.5
